Test system: A549
Assay details: Cytotoxic activity in human A549 cells assessed as reduction in cell viability
Type: functional, cell-based
Outcome measure: IC50 (µM)
Output spec: scalar in µM, unitless text.

* C=C(C)[C@@H]1CC[C@]2(C(=O)OCc3cn(-c4ccc5c(c4)OCO5)nn3)CC[C@]3(C)[C@H](CC[C@@H]4[C@@]5(C)CCC(=O)C(C)(C)[C@@H]5CC[C@]43C)[C@@H]12 | 5

Task: Give reported IC50 value for `C=C(C)[C@@H]1CC[C@]2(C(=O)OCc3cn(-c4cccc(O)c4)nn3)CC[C@]3(C)[C@H](CC[C@@H]4[C@@]5(C)CCC(=O)C(C)(C)[C@@H]5CC[C@]43C)[C@@H]12`
Result: 3.7

* * *

System: HCT-116
Assay details: Cytotoxic activity in human HCT116 cells assessed as reduction in cell viability
Format: functional, cell-based
Outcome measure: IC50 (µM)
Respond numerically; units are µM and should not be typed.

Recorded IC50, per entry:
• C=C(C)[C@@H]1CC[C@]2(C(=O)O)CC[C@]3(C)[C@H](CC[C@@H]4[C@@]5(C)CC[C@H](OC(C)=O)C(C)(C)[C@@H]5CC[C@]43C)[C@@H]12 = 9.6
• C=C(C)[C@@H]1CC[C@]2(C(=O)OCc3cn(-c4cccc(C(=O)O)c4)nn3)CC[C@]3(C)[C@H](CC[C@@H]4[C@@]5(C)CCC(=O)C(C)(C)[C@@H]5CC[C@]43C)[C@@H]12 = 4

Okay, next one:
Task: Given the compound `C=C(C)[C@@H]1CC[C@]2(C(=O)OCc3cn(-c4ccc(O)c(C)c4)nn3)CC[C@]3(C)[C@H](CC[C@@H]4[C@@]5(C)CCC(=O)C(C)(C)[C@@H]5CC[C@]43C)[C@@H]12` , write its reported IC50.
Result: 3.5

Recorded values, source ChEMBL document CHEMBL4376808.
